Where do these numbers come from? They come from patent US20110123544A1.

Target: T1, recombinant human interleukin 12 (p40/p35 heterodimer) (human, UniProt P29460 23-328; P29459 23-219)
T1 chain 1: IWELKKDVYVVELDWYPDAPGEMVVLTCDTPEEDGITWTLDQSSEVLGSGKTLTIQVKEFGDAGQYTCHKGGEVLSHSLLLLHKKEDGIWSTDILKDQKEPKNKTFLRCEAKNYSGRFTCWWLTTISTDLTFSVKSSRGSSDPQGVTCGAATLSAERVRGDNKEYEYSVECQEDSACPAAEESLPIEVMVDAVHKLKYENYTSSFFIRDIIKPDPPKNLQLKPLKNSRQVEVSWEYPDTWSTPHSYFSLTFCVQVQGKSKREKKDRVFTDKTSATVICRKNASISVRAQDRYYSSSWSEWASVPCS
T1 chain 2: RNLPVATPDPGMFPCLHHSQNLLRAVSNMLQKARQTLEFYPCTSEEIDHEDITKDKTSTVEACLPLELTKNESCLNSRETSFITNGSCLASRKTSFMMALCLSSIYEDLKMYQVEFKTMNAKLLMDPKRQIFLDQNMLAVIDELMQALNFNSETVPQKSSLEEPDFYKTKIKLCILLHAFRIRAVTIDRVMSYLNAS
Experiment: BIAcore
Collected koff values appear next to each entry.

[
  {
    "binder": "FTFESYGMH [Y61 H30 E]",
    "koff": "0.000228 s⁻¹"
  },
  {
    "binder": "FTFSSYPMH [Y61 H33 P]",
    "koff": "0.0016 s⁻¹"
  },
  {
    "binder": "FTFSSIGMH [Y61 H32 I]",
    "koff": "0.00161 s⁻¹"
  },
  {
    "binder": "FTFSHYGMH [Y61 H31 H]",
    "koff": "0.000309 s⁻¹"
  },
  {
    "binder": "FTFSSYSMH [Y61 H33 S]",
    "koff": "0.000399 s⁻¹"
  },
  {
    "binder": "FTFWSYGMH [Y61 H30 W]",
    "koff": "0.000216 s⁻¹"
  },
  {
    "binder": "FTFSSYDMH [Y61 H33 D]",
    "koff": "0.00152 s⁻¹"
  },
  {
    "binder": "FTFNSYGMH [Y61 H30 N]",
    "koff": "0.000301 s⁻¹"
  }
]
